- measured on: Gal4-RORγ-LBD (Homo sapiens)
- Construct: expressed in transfected cells; host or cells: HEK-293 cells (pcDNA3.1neo plasmid)
- Sequence (P51449 269-508 limits assumed): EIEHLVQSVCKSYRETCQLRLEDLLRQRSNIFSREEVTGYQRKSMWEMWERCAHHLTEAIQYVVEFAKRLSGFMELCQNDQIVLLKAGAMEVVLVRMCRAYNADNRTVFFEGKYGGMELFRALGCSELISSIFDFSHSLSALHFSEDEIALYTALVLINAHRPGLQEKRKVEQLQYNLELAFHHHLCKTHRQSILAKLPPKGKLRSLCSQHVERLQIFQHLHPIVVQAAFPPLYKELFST
- assay details: Gal4-RORγ Luciferase Reporter Assay in HEK-293T Cells
- Type: cell-based
- measurement parameters: HEK-293 cells, 2 μM ursolic acid
pEC50: −log10 of the molar value.
reported metric: pEC50

As a guide, the following entries are already answered.
O=C(O)[C@]1(C[C@H]2CN(S(=O)(=O)c3cccc(C(F)(F)F)c3)c3cc(-c4cc(F)cc(OC(F)F)c4)ccc3O2)C[C@@H](O)C1 [Compound 68]
> 6.30
O=C(O)C1(C[C@H]2CN(S(=O)(=O)c3cccc(C(F)(F)F)c3)c3cc(-c4cccc(F)c4F)ccc3O2)CCOCC1 [Compound 78P]
> 6.30
Cn1cc(C(=O)NC[C@H]2CN(S(=O)(=O)c3cccc(C(F)(F)F)c3)c3cc(-c4cccc(F)c4Cl)ccc3O2)cn1 [Compound 30CD]
> 6.30
CC(C)(C(=O)NC[C@H]1CN(S(=O)(=O)c2cccc(C(F)(F)F)c2)c2cc(-c3cc(F)cc(F)c3Cl)ccc2O1)C(F)(F)F [Compound 30CL]
5.30 to 6.30
COc1ccc(F)c(-c2ccc3c(c2)N(S(=O)(=O)c2cccc(C(F)(F)F)c2)C[C@H](CC(C)(C)C(=O)O)O3)c1F [Compound 32BK]
> 6.30

Documented pEC50 of CC(=O)c1ccc(F)c(-c2ccc3c(c2)N(S(=O)(=O)c2cccc(C(F)(F)F)c2)C[C@H](CC(C)(C)C(=O)O)O3)c1 [Compound 32AE] : > 6.30

Documented pEC50 of O=C(O)[C@H]1C[C@H](C[C@H]2CN(S(=O)(=O)c3cccc(C(F)(F)F)c3)c3cc(-c4cccc(C(F)(F)F)n4)ccc3O2)C1 [Compound 60C] : > 6.30

Documented pEC50 of O=C(O)C1(C[C@H]2CN(S(=O)(=O)c3cccc(C(F)(F)F)c3)c3cc(-c4cccc(Cl)c4F)ccc3O2)CCOCC1 [Compound 78F] : > 6.30

Documented pEC50 of CC(=O)NC1(C[C@H]2CN(S(=O)(=O)c3cccc(C(F)(F)F)c3)c3cc(-c4cccc(C(F)(F)F)n4)ccc3O2)COC1 [Compound 51M] : > 6.30

Documented pEC50 of Cc1ccc(Cl)cc1-c1ccc2c(c1)N(S(=O)(=O)c1cccc(C(F)(F)F)c1)C[C@H](CC(C)(C)C(=O)O)O2 [Compound 32AR] : > 6.30

Documented pEC50 of CC(C)(C[C@H]1CN(S(=O)(=O)c2cccc(C(F)(F)F)c2)c2cc(-c3cccc(C(F)F)c3)ccc2O1)C(=O)O [Compound 32AL] : > 6.30

Documented pEC50 of O=C(NC[C@H]1CN(S(=O)(=O)c2cccc(C(F)(F)F)c2)c2cc(-c3cccc(F)c3Cl)ccc2O1)C1(CO)CC1 [Compound 30CB] : > 6.30
